Reference source for all entries: paper PMC9718554

The following compounds are listed with their measured remaining activity at 3300 µM values.
Target: E. coli DdlB enzyme (D-alanine:D-alanine ligase) (Escherichia coli, UniProt P07862)
Construct: made in house; host or cells: E. coli
Test: biochemical
Settings: tested concentration 3.3 mM; read-out: DdlB RA
Reported endpoint: remaining activity at 3300 µM (%)

>>> df
      compound_structure  u  meas_value
0  O=c1[nH]c2ccc(O)cc2o1  %          96
1      CCc1ccc(B(O)O)cc1  %         104
2  Oc1cc(-c2ccco2)n[nH]1  %          98
3  O=c1c(O)c(NC2CC2)c1=O  %          90
